Ref: ChEMBL document CHEMBL1139884

Quick reference: MIC of the listed items.
- Tested on: Staphylococcus aureus
- assay-notes: Antimicrobial activity against Staphylococcus aureus ATCC 13709 after 20 to 24 hrs
- Assay type: functional
result-type: MIC (µg/mL)

compound: CC(=O)N(CCO[C@H]1[C@H](O[C@@H]2[C@@H](O)[C@H](N)C[C@H](N)[C@H]2O[C@H]2O[C@H](CO)[C@@H](O)[C@H](O)[C@H]2N)O[C@H](CO)[C@H]1O[C@H]1O[C@@H](CN)[C@@H](O)[C@H](O)[C@H]1N)CCc1ccccc1
result-type: MIC
units-text: µg/mL
measurement-qualifier: =
observed-measurement: 1
--
compound: NC[C@@H]1O[C@H](O[C@H]2[C@@H](OCCN(CCCc3ccccc3)CCc3ccccc3)[C@H](O[C@H]3C(O[C@H]4O[C@H](CO)[C@@H](O)[C@H](O)[C@H]4N)[C@@H](N)C[C@@H](N)[C@@H]3O)O[C@@H]2CO)[C@H](N)[C@@H](O)[C@@H]1O (some centres undefined)
result-type: MIC
units-text: µg/mL
measurement-qualifier: =
observed-measurement: 0.6
--
compound: NC[C@@H]1O[C@H](O[C@H]2[C@@H](OCCNCc3nc4ccccc4[nH]3)[C@H](O[C@@H]3[C@@H](O)[C@H](N)C[C@H](N)[C@H]3O[C@H]3O[C@H](CO)[C@@H](O)[C@H](O)[C@H]3N)O[C@@H]2CO)[C@H](N)[C@@H](O)[C@@H]1O
result-type: MIC
units-text: µg/mL
measurement-qualifier: >
observed-measurement: 100
--
compound: NC[C@@H]1O[C@H](O[C@H]2[C@@H](OCCNC3CCCNC3)[C@H](O[C@@H]3[C@@H](O)[C@H](N)C[C@H](N)[C@H]3O[C@H]3O[C@H](CO)[C@@H](O)[C@H](O)[C@H]3N)O[C@@H]2CO)[C@H](N)[C@@H](O)[C@@H]1O (some centres undefined)
result-type: MIC
units-text: µg/mL
measurement-qualifier: =
observed-measurement: 3

====

- Test system: Staphylococcus aureus
- assay-notes: Antimicrobial activity against Staphylococcus aureus ATCC 13709 after 20 to 24 hrs
- Assay type: functional

compound: NC[C@@H]1O[C@H](O[C@H]2[C@@H](OCCNC3CCNCC3)[C@H](O[C@H]3C(O[C@H]4O[C@H](CO)[C@@H](O)[C@H](O)[C@H]4N)[C@@H](N)C[C@@H](N)[C@@H]3O)O[C@@H]2CO)[C@H](N)[C@@H](O)[C@@H]1O (some centres undefined)
MIC: 2 µg/mL
--
compound: NC[C@@H]1O[C@H](O[C@H]2[C@@H](OCCNc3cccnc3)[C@H](O[C@@H]3[C@@H](O)[C@H](N)C[C@H](N)[C@H]3O[C@H]3O[C@H](CO)[C@@H](O)[C@H](O)[C@H]3N)O[C@@H]2CO)[C@H](N)[C@@H](O)[C@@H]1O
MIC: < 1.5 µg/mL
--
compound: NC[C@@H]1O[C@H](O[C@H]2[C@@H](OCCNCc3ccc(N)nc3)[C@H](O[C@@H]3[C@@H](O)[C@H](N)C[C@H](N)[C@H]3O[C@H]3O[C@H](CO)[C@@H](O)[C@H](O)[C@H]3N)O[C@@H]2CO)[C@H](N)[C@@H](O)[C@@H]1O
MIC: 0.3 µg/mL
--
compound: CC(C)(C)CCNCCO[C@H]1[C@H](O[C@@H]2[C@@H](O)[C@H](N)C[C@H](N)[C@H]2O[C@H]2O[C@H](CO)[C@@H](O)[C@H](O)[C@H]2N)O[C@H](CO)[C@H]1O[C@H]1O[C@@H](CN)[C@@H](O)[C@H](O)[C@H]1N
MIC: 0.6 µg/mL
